tested on: EKVX; assay: NCI tumour cell line growth inhibition, 48 h
Calls of active or inactive are those of the source. No stated cut-off is given here; in the data, active = GI50 up to about 1.1 µM and inactive = higher.
experimental-endpoint: GI50

Here are 5 compounds together with their reported answers.
Quick one: GI50 for C=CC1=C(C)c2cc3[nH]c(cc4nc(cc5[nH]c(cc1n2)c(C)c5CCC(=O)N(CC)CC)C(CCC(=O)N(CC)CC)=C4C)c(C)c3C=C ?
> 100 µM (inactive)

Quick one: GI50 for c1cc(CSc2ncnc3[nH]cnc23)ccn1 ?
> 100 µM (inactive)

Quick one: GI50 for O=C(O)c1ccccc1NC(=O)C1CCCCC1 ?
> 100 µM (inactive)

Quick one: GI50 for C[C@H](CCC(=O)O)[C@H]1CC[C@@]2(C)[C@@H]3C(=O)C[C@H]4C(C)(C)[C@@H](O)CC[C@]4(C)[C@H]3C(=O)C[C@]12C ?
> 100 µM (inactive)

Quick one: GI50 for CCCCCCCCCCCC(=O)OC(COC(N)=O)COc1ccc(Cl)cc1 (stereo unspecified) ?
30.1 µM (inactive)

Now let's try a different one.
Quick one: GI50 for Cc1csc2nc3[nH]ncc3c(=O)n12 ?
> 100 µM (inactive)

====

system: SR; test: NCI tumour cell line growth inhibition, 48 h
Active and inactive are the calls of the source. No stated cut-off is given here; in the data, active = GI50 up to about 1.1 µM and inactive = higher.
Write down one outcome, taken from 1 = active, -1 = inactive

Tell me the recorded outcome of this test for O=C1CCCC2C3CC(CN12)C1CCCCN1C3.[O-][Cl+3]([O-])([O-])O (stereo not given) .
-1

Tell me the recorded outcome of this test for COc1cc([C@@H]2c3cc4c(c(O)c3C[C@H]3COC(=O)[C@@H]32)OCO4)cc(OC)c1OC .
-1

Tell me the recorded outcome of this test for C/C(=C\Cc1cc(O)ccc1O)CCc1c(C)cc(O)c(C=O)c1C .
-1

Tell me the recorded outcome of this test for C#CCN(Cc1ccc2nc(-c3ccccc3)c(N)nc2c1)c1cc(OC)c(OC)c(OC)c1 .
-1

Tell me the recorded outcome of this test for COc1cc(Br)cc2cc(-c3cn4ccsc4n3)c(=O)oc12 .
-1

====

tested on: IGROV-1; assay: NCI tumour cell line growth inhibition, 48 h
Active and inactive are the calls of the source. Cut-off read from the data, not from the text of the source: active = GI50 up to about 1.1 µM and inactive = higher.
List of GI50 values.

Here are 9 compounds together with their reported answers.
Quick one: GI50 for C[C@H](CCC(=O)O)[C@H]1CC[C@@]2(C)[C@@H]3C(=O)C[C@H]4C(C)(C)[C@@H](O)CC[C@]4(C)[C@H]3C(=O)C[C@]12C ?
> 100 µM (inactive)

Quick one: GI50 for COC(=O)c1c2c(cc3c1CC1(Cc4cc5c(c(C=O)c4C1)CCCC5)C3)CCCC2 (stereo not given) ?
81.5 µM (inactive)

Quick one: GI50 for Cn1c(=O)oc2cc(C(=O)CSC(=S)N3CCCCCC3)ccc21 ?
> 100 µM (inactive)

Quick one: GI50 for COc1ccc(NC(=O)CC(=O)n2nc(-c3ccccc3)c(/N=N/c3ccccc3C)c2-c2ccccc2)cc1 ?
21.4 µM (inactive)

Quick one: GI50 for COc1ccc(C2CC(c3c(O)ccc4ccccc34)=NN2)cc1OC (stereo not given) ?
4.43 µM (inactive)

Quick one: GI50 for CCOC(=O)c1[nH]c2cccc3c2c1CC(Br)C3=O (stereo not given) ?
5.86 µM (inactive)

Quick one: GI50 for O=C1/C(=C/Cc2ccco2)N=C(c2ccccc2)N1c1nc2c(Cl)cc(Cl)cc2s1 ?
29.9 µM (inactive)

Quick one: GI50 for O=c1[nH]c(=O)n(C2COC(CO)C2O)cc1F (stereo not given) ?
32.4 µM (inactive)

Quick one: GI50 for COc1ccc(NC(=S)c2ccc(CN3CCCCC3)s2)cc1 ?
22.8 µM (inactive)

More entries:
Quick one: GI50 for COc1cc2c(cc1OC)CN1CCc3ccccc3CC1C2 (stereo not given) ?
17.5 µM (inactive)
